# ASSAY TARGET: horseradish peroxidase (HRP) (Armoracia rusticana)
# Sequence (P00433 31-353): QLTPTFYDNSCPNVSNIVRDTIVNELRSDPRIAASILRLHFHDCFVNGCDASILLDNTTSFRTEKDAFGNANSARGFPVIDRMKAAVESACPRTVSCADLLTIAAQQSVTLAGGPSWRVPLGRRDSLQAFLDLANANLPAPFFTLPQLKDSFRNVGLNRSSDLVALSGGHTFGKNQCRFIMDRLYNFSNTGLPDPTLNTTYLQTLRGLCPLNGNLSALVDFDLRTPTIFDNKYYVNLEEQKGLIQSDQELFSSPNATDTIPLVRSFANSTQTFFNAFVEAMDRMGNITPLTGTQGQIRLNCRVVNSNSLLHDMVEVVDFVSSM
# ASSAY COMMENT: HRP inhibition control (compounds tested for their ability to inhibit HRP)
# Assay type: biochemical
# RECORDED CONDITIONS: compound at 100 μM
# Protocol: The compounds ability to inhibit TXNPx has been evaluated by simply measuring the following ratio: ΔA/ΔA0 where ΔA0 is the difference in absorbance between HRP and compound I (ΔA0 = 0.04) and ΔA is the difference in absorbance between HRP and compound I in the presence of LmTXNPx and 100 μM inhibitors. All the compounds have been previously tested for their ability to inhibit HRP at a concentration of 100 μM.
OBSERVABLE: HRP inhib.

{"columns": ["MOLECULE", "ASSAY TARGET", "HRP inhib."],
 "data": [
  ["COc1cc2cc(CN(Cc3ccc(Cl)cc3)Cc3nnnn3Cc3ccccc3)c(=O)[nH]c2cc1OC [Compound 10]", "horseradish peroxidase (HRP) (Armoracia rusticana)", "Yes"],
  ["COc1cc2cc(CN(Cc3ccc(F)cc3)Cc3nnnn3Cc3ccccc3)c(=O)[nH]c2cc1OC [Compound 1]", "horseradish peroxidase (HRP) (Armoracia rusticana)", "No"],
  ["COc1ccc2[nH]c(=O)c(CN(Cc3ccc(F)cc3)Cc3nnnn3Cc3ccccc3)cc2c1 [Compound 7]", "horseradish peroxidase (HRP) (Armoracia rusticana)", "No"],
  ["COc1cc2cc(CN(Cc3ccc(F)cc3)Cc3nnnn3Cc3cccc(N)c3)c(=O)[nH]c2cc1OC [Compound 3]", "horseradish peroxidase (HRP) (Armoracia rusticana)", "No"],
  ["O=c1[nH]c2ccccc2cc1CN(Cc1ccc(F)cc1)Cc1nnnn1Cc1ccccc1 [Compound 8]", "horseradish peroxidase (HRP) (Armoracia rusticana)", "No"]
]}

Input: Can you share its HRP inhib.? I mean this molecule: COc1cc2cc(CN(Cc3ccc(F)cc3)Cc3nnnn3Cc3cccc([N+](=O)[O-])c3)c(=O)[nH]c2cc1OC [Compound 2]
Output: No

Input: Consider the molecule COc1cc2cc(CN(Cc3nnnn3Cc3ccccc3)CC34CC5CC(CC(C5)C3)C4)c(=O)[nH]c2cc1OC [Compound 12] and give its measured HRP inhib..
Output: No

Input: Look up HRP inhib.: COc1cc2cc(CN(Cc3ccc(F)cc3)Cc3nnnn3Cc3cccc(I)c3)c(=O)[nH]c2cc1OC [Compound 5]
Output: No

---

# ASSAY TARGET: LmTXNPx (Leishmania major, UniProt Q4QF76)
# Sequence (Q4QF76 entry or part of it): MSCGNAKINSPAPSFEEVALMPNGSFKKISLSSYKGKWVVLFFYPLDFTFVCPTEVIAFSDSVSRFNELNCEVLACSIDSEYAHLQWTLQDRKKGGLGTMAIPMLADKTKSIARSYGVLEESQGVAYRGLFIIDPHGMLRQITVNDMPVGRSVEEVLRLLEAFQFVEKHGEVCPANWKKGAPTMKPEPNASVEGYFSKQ
# ASSAY COMMENT: Surface plasmon resonance, immobilized LmTXNPx
# Format: binding
# RECORDED CONDITIONS: SPR, 1:1 steady-state affinity model
OBSERVABLE: Kd (µM)

{"columns": ["COMPOUND", "ENDPOINT UNIT", "Kd"],
 "data": [
  ["COc1ccc2[nH]c(=O)c(CN(Cc3ccc(F)cc3)Cc3nnnn3Cc3ccccc3)cc2c1 [Compound 7]", "µM", 47],
  ["COc1cc2cc(CN(Cc3ccccc3)Cc3nnnn3Cc3ccccc3)c(=O)[nH]c2cc1OC [Compound 9]", "µM", 74],
  ["COc1cc2cc(CN(Cc3ccc(F)cc3)Cc3nnnn3Cc3ccccc3)c(=O)[nH]c2cc1OC [Compound 1]", "µM", 290],
  ["COc1cc2cc(CN(Cc3ccc(F)cc3)Cc3nnnn3Cc3cccc(N)c3)c(=O)[nH]c2cc1OC [Compound 3]", "µM", 354],
  ["COc1cc2cc(CN(Cc3ccc(F)cc3)Cc3nnnn3Cc3cccc(I)c3)c(=O)[nH]c2cc1OC [Compound 5]", "µM", 281]
]}

[P] COc1cc2cc(CN(Cc3ccc(F)cc3)Cc3nnnn3Cc3cccc([N+](=O)[O-])c3)c(=O)[nH]c2cc1OC [Compound 2]
[Q] COc1cc2cc(CN(Cc3ccc(Cl)cc3)Cc3nnnn3Cc3ccccc3)c(=O)[nH]c2cc1OC [Compound 10]
[R] COc1cc2cc(CN(Cc3nnnn3Cc3ccccc3)CC34CC5CC(CC(C5)C3)C4)c(=O)[nH]c2cc1OC [Compound 12]
Input: Sequence the entries by Kd, beginning with the highest number. Please list each label once, in the requested order.
Output: P, Q, R

[a] COc1cc2cc(CN(Cc3ccc(F)cc3)Cc3nnnn3Cc3cccc(N(C)C)c3)c(=O)[nH]c2cc1OC [Compound 4]
[b] COc1cc2cc(CN(Cc3ccc(F)cc3)Cc3nnnn3Cc3cccc(-c4ccccc4)c3)c(=O)[nH]c2cc1OC [Compound 6]
[c] O=c1[nH]c2ccccc2cc1CN(Cc1ccc(F)cc1)Cc1nnnn1Cc1ccccc1 [Compound 8]
Input: Ascending by Kd, please: list the compounds accordingly. Order the labels as requested and list them.
Output: b, c, a
(b: 52 µM, c: 104 µM, a: 156 µM)
